B1: Hairpin Ribozyme (parent)
chain: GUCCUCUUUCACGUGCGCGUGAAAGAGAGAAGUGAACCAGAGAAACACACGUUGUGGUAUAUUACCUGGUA

Variants of: B1
protocol: self-cleavage, relative activity (ratio to wild type); higher = more cleavage; co-transcriptional
recorded.endpoint: self-cleavage
Reply briefly: the number, and no unit.

Below are worked cases with known answers.
G25C G56U    0.153
C6G G27A    0.135
A28U G69A    0.137
G54C G69U    0.113

Specify reported self-cleavage for the variant shown: C3G G13U
0.259

Specify reported self-cleavage for the variant shown: G27A U63A
0.103

Specify reported self-cleavage for the variant shown: A43U C65A
0.0905
